Attribution: paper PMC12136788

STUDY SYSTEM: T1, UNK ZnF1-3 (human, UniProt Q9C0B0 31-174)
T1 sequence: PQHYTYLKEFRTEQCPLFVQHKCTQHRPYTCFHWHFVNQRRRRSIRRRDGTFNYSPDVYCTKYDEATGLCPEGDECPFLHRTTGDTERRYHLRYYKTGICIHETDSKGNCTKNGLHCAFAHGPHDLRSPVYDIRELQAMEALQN
ASSAY COMMENT: nsRBNS (natural sequence RNA bind-n-seq); RBNS binding buffer (assumed for nsRBNS): 25 mM Tris pH 7.5, 150 mM KCl, 3 mM MgCl2, 0.01% Triton X-100, 500 ug/ml BSA, 20 U/ml SUPERase-In, 4 C; UNK is unkempt and MSI1 is Musashi-1; names of the RNAs are library labels; protein concentration not given here; high values mean tight binding
The full ranking holds about 24,000 sequences; the median of “enrichment r” is about 0.99, and the highest 2% start at about 3.7. Many of the other results were omitted from the sample, so the highest values are more common in it than they were.
Grouping key: binding signal. Bins: interval 1 (below 1 enrichment R), interval 2 (1 enrichment R to below 4 enrichment R), interval 3 (4 enrichment R or more)

Observe how each entry below is paired with its result.
{"BINDER": "8890394_8891644_3383_CDS_ENSG00000134313_ENST00000427284|human|control|control (ssRNA) RNA: GGGAGUUCUACAGUCCGACGAUCACCCUCAUGUAGAGGGAGCGGGGGGUACGCCAGUCCUCCAAUACUGAUCUGCUCUCUGGCAGCACGAACAUCUGCAAUAAUUUCCCGUAGUUUGGGAUCUAGGUUUACAGUGCAUGGCAACAACAGAGGAUUGAGCAUCA", "ASSIGNED CATEGORY": "interval 1"}
{"BINDER": "chr17:15081082:15081083:+_ENSMUSG00000050088_ENSMUST00000052691|mus_mus|FALSE|FALSE (ssRNA) RNA: GGGAGUUCUACAGUCCGACGAUCUGCUCCAGCAUAUUCAAGGGAUCAGAAGAGAAUUUCAAGCACCAGUUUCAAAAUGCUAAUCAAUAUCGUCCAGAGAACUGAUUCCUCCUCUUGGGCUGCCUCUUCUGGAGCGUAAGCCUGCAACAGAGGAUUGAGCAUCA", "ASSIGNED CATEGORY": "interval 2"}
{"BINDER": "chr18:33597908:33597909:-_ENSMUSG00000042834_ENSMUST00000171533|mus_hu|FALSE|FALSE (ssRNA) RNA: GGGAGUUCUACAGUCCGACGAUCCAUCAAAAGAGUACAUGGAUAAAAUAUAGAGAUAUACAGACAAUUGAUGAACAUAAACUACUAGGUUUGUUACAUCUAAAUGAAAAAAAAGGUGGGGGGGGGACUCUCAGCCUCUGCAAGCAACAGAGGAUUGAGCAUCA", "ASSIGNED CATEGORY": "interval 3"}

Prompt: Which class is correct for the following binder? chr9:122046315:122046316:+_ENSMUSG00000038145_ENSMUST00000120173|mus_hu|FALSE|FALSE (ssRNA) RNA: GGGAGUUCUACAGUCCGACGAUCUAGUUUGGUCUGGGUGUCAAUAACUUCAUAAAGGCGGACGAUGUUAGGAUGCUGCACUAGUUUCAUGCAUCUCACUUCCUGGAAAAGAUGACCAGUAGCUAGAGUGUCCAGUUUUGUCUUCAACAGAGGAUUGAGCAUCA
Response: interval 1

Prompt: Which class is correct for the following binder? 104520116_104520236_3471_3pUTR_ENSMUSG00000027175_ENSMUST00000111118|mouse|control|control (ssRNA) RNA: GGGAGUUCUACAGUCCGACGAUCAAGUUAAAAUUCCAGCCUAUGUGAAAAGAGAUACAAUUUAACACAGGUGACAGGACGCUCUGCUGUUAGUUUCCCUACAUCAAAGACUAUUCCAGUACAAUGAACAGGAGGGUUUGGAAGCAACAGAGGAUUGAGCAUCA
Response: interval 2

Prompt: Which class is correct for the following binder? chr1:46159212:46159213:+_ENSG00000159596_ENST00000372025|hu_mus|hu_hu_hu_mus_True|28_108 (ssRNA) RNA: GGGAGUUCUACAGUCCGACGAUCUCUGAUCCCACCCAAGAAAGCUAGGAAACCGGCUCCAUAAGCCAUCUGAGUGAAAGCUAGGACGGGGAUAUAAGACUUUGUUAUCAGCAUGACAAGUGGGGGAGCAGUAAAGGGGAUUAACAACAGAGGAUUGAGCAUCA
Response: interval 2

Prompt: Which class is correct for the following binder? chr18:33597908:33597909:-_ENSMUSG00000042834_ENSMUST00000171533|mus_hu|motif|central (ssRNA) RNA: GGGAGUUCUACAGUCCGACGAUCCAUCAAAAGAGUACAUGGAUAAAAUAUAGAGAUAUACAGACAAUUGAUGAACAUAAACGGCGGGGUUUGUUACAUCUAAAUGAAAAAAAAGGUGGGGGGGGGACUCUCAGCCUCUGCAAGCAACAGAGGAUUGAGCAUCA
Response: interval 3

Prompt: Which class is correct for the following binder? chr9:127911758:127911759:-_ENSG00000119414_ENST00000373547|hu_mus|motif|central (ssRNA) RNA: GGGAGUUCUACAGUCCGACGAUCUCUCAAACGAGUCCAAGGUGGGGUAGGAGGAGUGACAAAACUGAUAGAAAAACACUGCGGUUGACACCAUAACAAACAAUAAAUUUAGAUAAUUUAAAAUUAAAAAAAAAGGCAAGAGGCCAACAGAGGAUUGAGCAUCA
Response: interval 3

Prompt: Which class is correct for the following binder? chr12:48362563:48362564:+_ENSG00000134291_ENST00000256686|hu_hu|hu_hu_hu_mus_False|68_108 (ssRNA) RNA: GGGAGUUCUACAGUCCGACGAUCUCCGAAGGGUGAAUCGAUAGACCCUUGCGGGGGAAACUGUAAUAAUUCUAACUGGGGAAGGAAAAGAAACGCCAAAAACUUUCCAAAAAGCGGGGGUGGGGUGAGGCGGGAGGGGGAGGUCAACAGAGGAUUGAGCAUCA
Response: interval 2
